The values you see were collected from paper PMC11672294.

system: HT29; details: 72 h, relative to DMSO; 10 µM
Structures can show the parent of a compound that is named as a salt.
We begin with a simple list: items and their reported Relative cell viability (%).

Example entries and their recorded answers appear below.
// Relative cell viability (%) lookup, compound = O=P1(N(CCCl)CCCl)NCCCO1 (stereo not drawn) [Cyclophosphamide Monohydrate] , result: 130.7%

Record summary for CN1C(=O)CCS(=O)(=O)C1c1ccc(Cl)cc1 (stereo not drawn) : reported Relative cell viability (%) = 142.8%

Notebook: CCN(CC)CCNC(=O)c1cc(Cl)c(N)cc1OC [MetoclopraMide HCl] , Relative cell viability (%) read as 75.76%

Continuing:
For record O=C(Nc1c(Cl)cncc1Cl)c1ccc(OC(F)F)c(OCC2CC2)c1 the listed Relative cell viability (%) is 121.4%

Short answer for CO[C@H]1/C=C/O[C@@]2(C)Oc3c(C)c(O)c4c(c3C2=O)C2=NC3(CCN(CC(C)C)CC3)NC2=C(NC(=O)/C(C)=C\C=C\[C@H](C)[C@H](O)[C@@H](C)[C@@H](O)[C@@H](C)[C@H](OC(C)=O)[C@@H]1C)C4=O : Relative cell viability (%) was 70.34%

Consider CN(C)C/C=C/C(=O)Nc1cc2c(Nc3ccc(F)c(Cl)c3)ncnc2cc1O[C@H]1CCOC1 [Afatinib (BIBW2992) Dimaleate] . Its measured Relative cell viability (%) is 20.09%

The reported value for CC(N)C12CC3CC(CC(C3)C1)C2 (stereo not drawn) in terms of Relative cell viability (%) is 127.5%

Relative cell viability (%) recorded for this compound, COCCCN1CCC(NC(=O)c2cc(Cl)c(N)c3c2OCC3)CC1 [Prucalopride] , is 129.1%

Just so you know, measured Relative cell viability (%) for C[C@H](NC(=O)C(=O)Nc1ccccc1C(C)(C)C)C(=O)N[C@@H](CC(=O)O)C(=O)COc1c(F)c(F)cc(F)c1F came out at 86.75%

Entry COc1ccc(NS(=O)(=O)c2ccc(N)cc2)nn1 , Relative cell viability (%) reported as 72.12%

The reported value for Cc1ccc(Nc2nccc(N(C)c3ccc4c(C)n(C)nc4c3)n2)cc1S(N)(=O)=O in terms of Relative cell viability (%) is 46.12%

For this compound ( C/C(=C\c1csc(C)n1)[C@@H]1C[C@@H]2O[C@]2(C)CCC[C@H](C)[C@H](O)[C@@H](C)C(=O)C(C)(C)[C@@H](O)CC(=O)O1 [Epothilone B (EPO906, Patupilone)] ), measured Relative cell viability (%) is 7.321%
